- systemName: Kallikrein-3 (Homo sapiens, UniProt P07288)
- Sequence (P07288 25-261, species assumed): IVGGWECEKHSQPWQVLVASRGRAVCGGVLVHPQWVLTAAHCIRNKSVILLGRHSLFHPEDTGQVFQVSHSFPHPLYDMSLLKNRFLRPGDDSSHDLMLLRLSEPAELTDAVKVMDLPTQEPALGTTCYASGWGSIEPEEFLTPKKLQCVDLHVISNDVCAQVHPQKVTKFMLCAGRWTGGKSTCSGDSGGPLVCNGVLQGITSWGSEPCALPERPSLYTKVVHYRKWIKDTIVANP
- testProtocol: FRET peptide cleavage efficiency with Kallikrein-3
- Assay type: biochemical
- conditionDescription: t = 6 h; peptide 200 uM, Kallikrein-3 2 μg/ml, 37° C., pH 8
Square brackets hold non-standard residues; d marks the D form. Ends that are not written are not given here. Tyr(3-NO2) = N[C@@H](Cc1ccc(O)c([N+](=O)[O-])c1)C(=O)O; 2Abz = Nc1ccccc1C(=O)O
reportedProperty: Kallikrein-3 t = 6 h % cleavage

substance="SQYQSSPG ([2Abz]SQYQSSPG[Tyr(3-NO2)]-NH2) [LNK067]" reportedproperty="Kallikrein-3 t = 6 h % cleavage" result=41%
substance="RGRRHSSKLQ ([2Abz]RGRRHSSKLQ[Tyr(3-NO2)]-NH2) [LNK052]" reportedproperty="Kallikrein-3 t = 6 h % cleavage" result=55%
substance="GSGSGSGS ([2Abz]GSGSGSGS[Tyr(3-NO2)]-NH2) [LNK064]" reportedproperty="Kallikrein-3 t = 6 h % cleavage" result=0%
substance="SQLYSSPG ([2Abz]SQLYSSPG[Tyr(3-NO2)]-NH2) [LNK068]" reportedproperty="Kallikrein-3 t = 6 h % cleavage" result=94%
substance="RRLHYSL ([2Abz]RRLHYSL[Tyr(3-NO2)]-NH2) [LNK073]" reportedproperty="Kallikrein-3 t = 6 h % cleavage" result=79%
substance="SSLYSSPG ([2Abz]SSLYSSPG[Tyr(3-NO2)]-NH2) [LNK065]" reportedproperty="Kallikrein-3 t = 6 h % cleavage" result=93%

====

# % cleavage MMP-7 t = 60 min per entry
- systemName: MMP-7 (Homo sapiens)
- Construct: purchased SIGMA CC1059
- Sequence (P09237 95-267): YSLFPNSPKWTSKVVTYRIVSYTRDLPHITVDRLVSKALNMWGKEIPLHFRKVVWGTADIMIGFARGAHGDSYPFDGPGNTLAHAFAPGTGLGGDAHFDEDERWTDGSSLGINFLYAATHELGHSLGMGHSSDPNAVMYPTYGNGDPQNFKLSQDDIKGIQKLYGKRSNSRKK
- testProtocol: FRET peptide cleavage efficiency with MMP-7 (standard pH 7.5; also pH 6.5)
- Assay type: biochemical
- conditionDescription: t = 60 min (Table 9)
Square brackets hold non-standard residues; d marks the D form. Ends that are not written are not given here. Tyr(3-NO2) = N[C@@H](Cc1ccc(O)c([N+](=O)[O-])c1)C(=O)O; 2Abz = Nc1ccccc1C(=O)O
reportedProperty: % cleavage MMP-7 t = 60 min (%)

seqstring="RGRRAANLVRPLGYFGKL ([2Abz]RGRRAANLVRPLGYFGKL[Tyr(3-NO2)]-NH2) [LNK060]" unitslabel=% quantitativeresult=0
seqstring="SGRPLGYFGKL ([2Abz]SGRPLGYFGKL[Tyr(3-NO2)]-NH2) [LNK056]" unitslabel=% quantitativeresult=0
seqstring="SGRVLRKAGPQPLVD ([2Abz]SGRVLRKAGPQPLVD[Tyr(3-NO2)]-NH2) [LNK003]" unitslabel=% quantitativeresult=62
seqstring="SGRVAPQPLVD (not fully specified (N-terminus, C-terminus)) [LNK046]" unitslabel=% quantitativeresult=100
seqstring="RQRKVANLVG ([2Abz]RQRKVANLVG[Tyr(3-NO2)]-NH2) [LNK032]" unitslabel=% quantitativeresult=72
seqstring="RGRKSPYMLQG ([2Abz]RGRKSPYMLQG[Tyr(3-NO2)]-NH2) [LNK037]" unitslabel=% quantitativeresult=63

====

- systemName: matriptase (Homo sapiens)
- Construct: purchased R&D Systems 3946-SEB
- Sequence (Q9Y5Y6 615-855 limits assumed): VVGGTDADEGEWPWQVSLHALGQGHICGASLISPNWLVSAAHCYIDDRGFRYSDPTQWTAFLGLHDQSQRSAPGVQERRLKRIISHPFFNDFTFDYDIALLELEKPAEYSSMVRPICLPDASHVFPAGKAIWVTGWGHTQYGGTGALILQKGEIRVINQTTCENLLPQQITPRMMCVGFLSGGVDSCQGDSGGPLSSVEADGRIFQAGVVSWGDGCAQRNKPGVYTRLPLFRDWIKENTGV
- testProtocol: FRET peptide cleavage efficiency with matriptase
- Format: biochemical
- conditionDescription: t = 120 min; 200 uM linker, 1 ug/ml protease, 37° C., buffer B pH 9.0
Square brackets hold non-standard residues; d marks the D form. Ends that are not written are not given here. Tyr(3-NO2) = N[C@@H](Cc1ccc(O)c([N+](=O)[O-])c1)C(=O)O; 2Abz = Nc1ccccc1C(=O)O
# % cleavage Matriptase t = 120 min per entry
reportedProperty: % cleavage Matriptase t = 120 min (%)

substance="RQRRSPLGLAG ([2Abz]RQRRSPLGLAG[Tyr(3-NO2)]-NH2) [LNK010]" reportedproperty="% cleavage Matriptase t = 120 min" unitslabel=% quantitativeresult=91
substance="SQLYSSPG ([2Abz]SQLYSSPG[Tyr(3-NO2)]-NH2) [LNK068]" reportedproperty="% cleavage Matriptase t = 120 min" unitslabel=% quantitativeresult=0
substance="SSRGPASNRRLPLGLAG ([2Abz]SSRGPASNRRLPLGLAG[Tyr(3-NO2)]-NH2) [LNK001]" reportedproperty="% cleavage Matriptase t = 120 min" unitslabel=% quantitativeresult=99
substance="SGRVLTLRKAALPLAM ([2Abz]SGRVLTLRKAALPLAM[Tyr(3-NO2)]-NH2) [LNK020]" reportedproperty="% cleavage Matriptase t = 120 min" unitslabel=% quantitativeresult=99
substance="SSRVFRKPANLAG ([2Abz]SSRVFRKPANLAG[Tyr(3-NO2)]-NH2) [LNK019]" reportedproperty="% cleavage Matriptase t = 120 min" unitslabel=% quantitativeresult=97
substance="RSSYRSL ([2Abz]RSSYRSL[Tyr(3-NO2)]-NH2) [LNK075]" reportedproperty="% cleavage Matriptase t = 120 min" unitslabel=% quantitativeresult=56
substance="RRLNYSL ([2Abz]RRLNYSL[Tyr(3-NO2)]-NH2) [LNK074]" reportedproperty="% cleavage Matriptase t = 120 min" unitslabel=% quantitativeresult=10
substance="RQRRSAAPLGLAG ([2Abz]RQRRSAAPLGLAG[Tyr(3-NO2)]-NH2) [LNK028]" reportedproperty="% cleavage Matriptase t = 120 min" unitslabel=% quantitativeresult=79
substance="SGRVAGLVG ([2Abz]SGRVAGLVG[Tyr(3-NO2)]-NH2) [LNK016]" reportedproperty="% cleavage Matriptase t = 120 min" unitslabel=% quantitativeresult=92
substance="SSRAVFRKNLGPLGLAG ([2Abz]SSRAVFRKNLGPLGLAG[Tyr(3-NO2)]-NH2) [LNK002]" reportedproperty="% cleavage Matriptase t = 120 min" unitslabel=% quantitativeresult=84
substance="SGRVLRKAGPQPLVD ([2Abz]SGRVLRKAGPQPLVD[Tyr(3-NO2)]-NH2) [LNK003]" reportedproperty="% cleavage Matriptase t = 120 min" unitslabel=% quantitativeresult=88
substance="HSSKLQYFGKL ([2Abz]HSSKLQYFGKL[Tyr(3-NO2)]-NH2) [LNK061]" reportedproperty="% cleavage Matriptase t = 120 min" unitslabel=% quantitativeresult=0
substance="RGRRVANYFGKL ([2Abz]RGRRVANYFGKL[Tyr(3-NO2)]-NH2) [LNK055]" reportedproperty="% cleavage Matriptase t = 120 min" unitslabel=% quantitativeresult=100
substance="RGRRAANLVRPLGYFGKL ([2Abz]RGRRAANLVRPLGYFGKL[Tyr(3-NO2)]-NH2) [LNK060]" reportedproperty="% cleavage Matriptase t = 120 min" unitslabel=% quantitativeresult=100
substance="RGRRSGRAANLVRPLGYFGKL ([2Abz]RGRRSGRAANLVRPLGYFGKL[Tyr(3-NO2)]-NH2) [LNK059]" reportedproperty="% cleavage Matriptase t = 120 min" unitslabel=% quantitativeresult=100
substance="SSLYSSPG ([2Abz]SSLYSSPG[Tyr(3-NO2)]-NH2) [LNK065]" reportedproperty="% cleavage Matriptase t = 120 min" unitslabel=% quantitativeresult=0

====

- systemName: MMP-7 (Homo sapiens)
- Construct: purchased SIGMA CC1059
- Sequence (P09237 95-267): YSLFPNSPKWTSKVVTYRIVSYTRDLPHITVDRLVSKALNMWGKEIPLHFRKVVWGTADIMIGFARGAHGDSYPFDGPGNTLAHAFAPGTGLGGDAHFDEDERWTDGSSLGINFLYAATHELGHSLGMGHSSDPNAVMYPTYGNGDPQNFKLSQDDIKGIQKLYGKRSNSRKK
- testProtocol: FRET peptide cleavage efficiency with MMP-7 (standard pH 7.5; also pH 6.5)
- Format: biochemical
- conditionDescription: t = 120 min (Table 9)
Square brackets hold non-standard residues; d marks the D form. Ends that are not written are not given here. Tyr(3-NO2) = N[C@@H](Cc1ccc(O)c([N+](=O)[O-])c1)C(=O)O; 2Abz = Nc1ccccc1C(=O)O
reportedProperty: % cleavage MMP-7 t = 120 min (%)

substance="RGRKSPQPLVD ([2Abz]RGRKSPQPLVD[Tyr(3-NO2)]-NH2) [LNK040]" reportedproperty="% cleavage MMP-7 t = 120 min" unitslabel=% quantitativeresult=93
substance="SGRVLRKAGPANLVG ([2Abz]SGRVLRKAGPANLVG[Tyr(3-NO2)]-NH2) [LNK014]" reportedproperty="% cleavage MMP-7 t = 120 min" unitslabel=% quantitativeresult=100
substance="SGRVANLVG (not fully specified (N-terminus, C-terminus)) [LNK017]" reportedproperty="% cleavage MMP-7 t = 120 min" unitslabel=% quantitativeresult=100
substance="SSRGRRGPYMLQG ([2Abz]SSRGRRGPYMLQG[Tyr(3-NO2)]-NH2) [LNK021]" reportedproperty="% cleavage MMP-7 t = 120 min" unitslabel=% quantitativeresult=83
substance="RGRRVANYFGKL ([2Abz]RGRRVANYFGKL[Tyr(3-NO2)]-NH2) [LNK055]" reportedproperty="% cleavage MMP-7 t = 120 min" unitslabel=% quantitativeresult=0
substance="RGRKSPANLVG ([2Abz]RGRKSPANLVG[Tyr(3-NO2)]-NH2) [LNK034]" reportedproperty="% cleavage MMP-7 t = 120 min" unitslabel=% quantitativeresult=100
substance="SGRHSSKLQPLGYFGKL ([2Abz]SGRHSSKLQPLGYFGKL[Tyr(3-NO2)]-NH2) [LNK063]" reportedproperty="% cleavage MMP-7 t = 120 min" unitslabel=% quantitativeresult=0
substance="RGRKSQPLVD ([2Abz]RGRKSQPLVD[Tyr(3-NO2)]-NH2) [LNK041]" reportedproperty="% cleavage MMP-7 t = 120 min" unitslabel=% quantitativeresult=9
substance="RGRRPLGLAG ([2Abz]RGRRPLGLAG[Tyr(3-NO2)]-NH2) [LNK049]" reportedproperty="% cleavage MMP-7 t = 120 min" unitslabel=% quantitativeresult=8
substance="RGRKPQPLVD ([2Abz]RGRKPQPLVD[Tyr(3-NO2)]-NH2) [LNK039]" reportedproperty="% cleavage MMP-7 t = 120 min" unitslabel=% quantitativeresult=96
substance="RGRRHSSKLQ ([2Abz]RGRRHSSKLQ[Tyr(3-NO2)]-NH2) [LNK052]" reportedproperty="% cleavage MMP-7 t = 120 min" unitslabel=% quantitativeresult=0
substance="SGRVAPQPLVD (not fully specified (N-terminus, C-terminus)) [LNK046]" reportedproperty="% cleavage MMP-7 t = 120 min" unitslabel=% quantitativeresult=100
substance="SGRPLGYFGKL ([2Abz]SGRPLGYFGKL[Tyr(3-NO2)]-NH2) [LNK056]" reportedproperty="% cleavage MMP-7 t = 120 min" unitslabel=% quantitativeresult=0
substance="HSSKLQYFGKL ([2Abz]HSSKLQYFGKL[Tyr(3-NO2)]-NH2) [LNK061]" reportedproperty="% cleavage MMP-7 t = 120 min" unitslabel=% quantitativeresult=0
substance="SGRVANPLGGSG ([2Abz]SGRVANPLGGSG[Tyr(3-NO2)]-NH2) [LNK053]" reportedproperty="% cleavage MMP-7 t = 120 min" unitslabel=% quantitativeresult=0
substance="SGRVANYFGKL ([2Abz]SGRVANYFGKL[Tyr(3-NO2)]-NH2) [LNK054]" reportedproperty="% cleavage MMP-7 t = 120 min" unitslabel=% quantitativeresult=0
substance="RGRRAANLVRPLGYFGKL ([2Abz]RGRRAANLVRPLGYFGKL[Tyr(3-NO2)]-NH2) [LNK060]" reportedproperty="% cleavage MMP-7 t = 120 min" unitslabel=% quantitativeresult=0
substance="SSRGPYMLQG ([2Abz]SSRGPYMLQG[Tyr(3-NO2)]-NH2) [LNK022]" reportedproperty="% cleavage MMP-7 t = 120 min" unitslabel=% quantitativeresult=100
substance="SGRVLRKAGPQPLVD ([2Abz]SGRVLRKAGPQPLVD[Tyr(3-NO2)]-NH2) [LNK003]" reportedproperty="% cleavage MMP-7 t = 120 min" unitslabel=% quantitativeresult=86
substance="RGRRVANPLGLAGSG ([2Abz]RGRRVANPLGLAGSG[Tyr(3-NO2)]-NH2) [LNK050]" reportedproperty="% cleavage MMP-7 t = 120 min" unitslabel=% quantitativeresult=6
substance="RGRRGP ([2Abz]RGRRGP[Tyr(3-NO2)]-NH2) [LNK048]" reportedproperty="% cleavage MMP-7 t = 120 min" unitslabel=% quantitativeresult=0
substance="SGRVQPLVD (not fully specified (N-terminus, C-terminus)) [LNK047]" reportedproperty="% cleavage MMP-7 t = 120 min" unitslabel=% quantitativeresult=88
substance="RGRRVANPLGYFGKL ([2Abz]RGRRVANPLGYFGKL[Tyr(3-NO2)]-NH2) [LNK058]" reportedproperty="% cleavage MMP-7 t = 120 min" unitslabel=% quantitativeresult=0
